- TARGET DESC: peptide from Dynamin1 proline-rich domain
- PROTOCOL: not stated; monomeric GRAF1 SH3 domain with a peptide from the Dynamin1 proline-rich domain; method in Figure S2D or the supplement, not shown
PARAMETER MEASURED: pKd
Quick note: pKd values are minus log10 of concentrations in mol/L.

I have this binder here, Monomeric GRAF1 SH3 domain (domain or fragment) TPFRKAKALYACKAEHDSELSFTAGTVFDNVHPSQEPGWLEGTLNGKTGLIPENYVEFL , and I need its recorded pKd.
3.97
